assay-info: Primary qHTS for inhibitors of nuclear receptor binding SET domain protein 2 (NSD2) in an RCH-ACV wild type WT cells (2C) (AID 1645877); note: potency is the fitted concentration of half-maximal effect; nearly all actives have a fitted effect of over 70% in size
condition-description: RCH-ACV (leukaemia line) NSD2 WT (2C) viability, CellTiter-Glo, 72 h; series mostly up to 44.9 µM
Records with an inconclusive call do not appear. Activity calls are given as the source filed them. Calls come from the whole dose curve; as a rule, active = well fitted inhibition curve with a large enough effect; inconclusive = small, poorly fitted or top-dose-only effect; inactive = no such curve, though single readings can be large or run the other way.
Below: a set of entries, each annotated with reported Potency.

{"columns": ["compound", "assay-endpoint", "result"],
 "data": [
  ["CC1OC2O[C@H]3[C@@H](OCC(O)[C@H]3O)OC(=O)C34CCC(C)(C)CC3C3=CCC5C6(C)CC(O)C(OC7OC(CO)C(O)C(O)C7O[C@@H]7OC[C@H](OC(=O)CC(C)(O)CC(=O)OC1C(OC1OCC(O)C(O)C1O)C2O)[C@@H](O)[C@H]7O)C(C)(CO)C6CCC5(C)C3(C)CC4 (stereo partly drawn)", "Potency", "4.47 µM (active)"],
  ["Cc1ccc(-c2nn(C(C)(C)C)c3ncnc(N)c23)cc1", "Potency", "11.6 µM (active)"],
  ["C[C@@H](Oc1cc(-n2cnc3ccc(OC4CCN(C)CC4)cc32)sc1C(N)=O)c1ccccc1Cl", "Potency", "0.058 µM (active)"]
]}

Query compound follows.
In plain terms, CN1CCN(C(=O)c2ccc(Nc3nccc(-c4cccs4)n3)cc2Cl)CC1 has a documented Potency of 6.49 µM (active)

----------
assay-info: qHTS for Inhibitors of Plasmodium falciparum (CP250) proliferation (AID 504320);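 note: plate controls were DMSO vehicle for no effect and 0.29 µM artemisinin control for full effect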
condition-description: P. falciparum CP250 in erythrocytes, SYBR Green DNA, 72 h; series mostly up to 6.7 µM
Results filed as inconclusive are left out. Active and inactive are the calls of the source. The call rests on the fitted dose curve; in most records, active means well fitted inhibition curve with a large enough effect; inconclusive means small, poorly fitted or top-dose-only effect, or effect the other way; inactive means flat fitted curve, though single readings scatter.
Result category, one only: label 1 = active, label 0 = inactive

The following compounds have reported results that may help.
{"columns": ["compound", "label-class"],
 "data": [
  ["C#CCN1C(=O)C2(CC(C)=C[C@@H](C)O2)c2c(Br)cccc21 (stereo partly specified)", "label 0"],
  ["CC1(OC(=O)CCc2ccccc2)C(=O)C=C2C=C(c3ccc(C#N)cc3)N(CC3CC3)C=C2C1=O (stereo unspecified)", "label 0"],
  ["COCCN1C(=O)NC(c2cccc(C(F)(F)F)c2)C(C(=O)OC)=C1C (stereo unspecified)", "label 0"],
  ["O=C(NC(CC1=CCCCC1)c1ccccc1)C(F)(F)F (stereo unspecified)", "label 0"],
  ["COC(=O)C1=C(C)N(Cc2ccccc2)C(=O)NC1CCc1ccccc1 (stereo unspecified)", "label 0"]
]}

(Q) Hi team, can someone confirm the assay call for CC(CCC(=O)OC[C@H]1O[C@H](C#Cc2ccccc2)C=C[C@H]1Oc1ccc(C)cc1)=NO[C@@H](C)c1cn([C@H](CO)Cc2ccccc2)nn1 ?
(A) label 0

(Q) Hi team, can someone confirm the assay call for CCN1C(=NCCCOC(C)C)NC(c2ccccc2)C(C(=O)OC)=C1C (stereo unspecified) ?
(A) label 0

----------
assay-info: qHTS Assay for Identifying Gametocytocidal Compounds (AID 743244);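 note: % is set by controls: 0 for no effect and ±100 for the full control effect; actives lower the fluorescent signal which means gametocytes are killed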
condition-description: P. falciparum 3D7 stage III-V gametocytes, alamarBlue, 72 h; active compounds read low
Inconclusive results are not listed.
assay-endpoint: max response (%)
Give the value, in units of %, as a plain number.

{"columns": ["compound", "units-text", "max response"],
 "data": [
  ["CCCCCCC(=O)O[C@H]1CC[C@H]2[C@@H]3CCc4cc(O)ccc4[C@H]3CC[C@]12C", "%", -2.62]
]}

In plain terms, O=Nc1c(-c2c(O)[nH]c3ccccc23)[nH]c2ccccc12 has a documented max response of 1.55
